# Test system: S. cerevisiae Mot1-301 ts growth rescue, BacTiter-Glo ATP luminescence
# ASSAY_PROCEDURE: restored Mot1-301 yeast growth at 38.5C – whole organism, S. cerevisiae, Mot1-301 ts mutant, luminescence, dose retest, SUMOylation pathway inhibitor project, confirmation (AID 463204);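 further: growth at restrictive 38.5 degrees C of Mot1-301 OY566 strain; actives raise luminescence by restoring growth of the ts mutant at high temperature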
Activity calls are given as the source filed them.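 How the source made its calls: active means AC50 no more than ten times the top concentration tested, that is within one log above it; inconclusive means flat curve fit with activity between 30% and 70%, or invalid poor fit; inactive means AC50 beyond ten times the top tested dose.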
In this exercise, the only acceptable responses are true (1) = active, false (0) = inactive

O=c1c2c3c(sc2n2cnnc2n1-c1ccccc1)N(Cc1ccccc1)CCC3 | false (0)
O=[N+]([O-])c1cc([N+](=O)[O-])c2cc3ccccc3nc2c1 | true (1)
COc1cc(/C=N/n2cnnc2)ccc1OCc1ccccc1 | false (0)

Ask: Lab log entry: COc1ccccc1NC(=O)CSc1nc(O)c(Cc2ccccc2)c(=O)[nH]1 — outcome as called in the assay?
Result: false (0)

Ask: Lab log entry: COc1cc(/C=N/NC(=O)c2cccc([N+](=O)[O-])c2)ccc1O — outcome as called in the assay?
Result: false (0)

Ask: Lab log entry: O=C(Nc1ccc2[nH]c(=O)[nH]c2c1)c1c(F)c(F)c(F)c(F)c1F — outcome as called in the assay?
Result: false (0)

Ask: Lab log entry: CCCc1nc2c(nnn2Cc2ccccc2F)c(=O)[nH]1 — outcome as called in the assay?
Result: false (0)

Ask: Lab log entry: CCN(CC)c1ccc2c(C)c(CN3CCOCC3)c(=O)oc2c1 — outcome as called in the assay?
Result: false (0)

Ask: Lab log entry: CCOc1ccc(NC(=O)Nc2ccc3nsnc3c2)cc1 — outcome as called in the assay?
Result: false (0)

Ask: Lab log entry: CC(C)Cc1nc(N2CCOCC2)c(C#N)c2c1CCC2 — outcome as called in the assay?
Result: false (0)

Ask: Lab log entry: CN1C2CCC1CC(OC(=O)c1ccc([N+](=O)[O-])cc1)C2 (stereo not given) — outcome as called in the assay?
Result: false (0)

Ask: Lab log entry: O=c1c2c(ncn1Cc1ccccc1)nc1n2CCC1 — outcome as called in the assay?
Result: false (0)

Ask: Lab log entry: CCOc1ccccc1/C=N\Nc1cnn(Cc2ccccc2)c(=O)c1Cl — outcome as called in the assay?
Result: false (0)

Ask: Lab log entry: N#Cc1cc2c(nc1SC1CCCCC1O)CCCC2 (stereo not given) — outcome as called in the assay?
Result: false (0)

Ask: Lab log entry: CCOc1ccc(Br)cc1S(=O)(=O)N1CCC(C(N)=O)CC1 — outcome as called in the assay?
Result: false (0)
